assayedSystem: T1, monkey IL-25 expressed with a C-terminal myc-myc-hexahistidine tag (M. fascicularis (cynomolgus monkey))
T1 construct: also called monkey IL-25-MMH; MfIL-25-MMH
T1 chain: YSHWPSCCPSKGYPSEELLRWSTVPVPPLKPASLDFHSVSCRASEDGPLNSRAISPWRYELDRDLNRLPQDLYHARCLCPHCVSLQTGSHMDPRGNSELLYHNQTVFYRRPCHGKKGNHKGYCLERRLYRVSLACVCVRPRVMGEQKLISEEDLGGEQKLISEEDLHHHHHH
assayName: SPR Biacore, captured mAb, 25°C;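 also: Real-time surface plasmon resonance on a Biacore 4000, with IL-25-MMH binding to purified anti-IL-25 antibodies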
attributeMeasured: koff (s⁻¹)
Field: numeric (s⁻¹). Do not append units.

Task item: Can you share its koff? I mean this binder: H4H10907P (antibody, human IgG4, V domains shown) VH: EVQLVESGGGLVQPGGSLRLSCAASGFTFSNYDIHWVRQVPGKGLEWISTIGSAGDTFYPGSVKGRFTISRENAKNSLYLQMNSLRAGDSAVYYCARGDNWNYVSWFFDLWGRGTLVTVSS VL: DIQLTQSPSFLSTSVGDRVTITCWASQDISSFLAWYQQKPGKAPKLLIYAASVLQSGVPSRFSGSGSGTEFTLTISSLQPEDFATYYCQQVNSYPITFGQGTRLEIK
Reply: 6.74e-05

Task item: Next: H4H10897P (antibody, human IgG4, V domains shown) VH: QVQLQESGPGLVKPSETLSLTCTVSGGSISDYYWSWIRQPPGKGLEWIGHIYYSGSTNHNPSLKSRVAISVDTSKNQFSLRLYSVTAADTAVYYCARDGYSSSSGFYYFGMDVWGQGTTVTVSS VL: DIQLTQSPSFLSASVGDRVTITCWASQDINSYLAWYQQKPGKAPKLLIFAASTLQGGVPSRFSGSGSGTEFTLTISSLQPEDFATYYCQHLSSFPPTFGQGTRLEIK
Reply: 8.43e-05

Task item: Next: H4H10901P (antibody, human IgG4, V domains shown) VH: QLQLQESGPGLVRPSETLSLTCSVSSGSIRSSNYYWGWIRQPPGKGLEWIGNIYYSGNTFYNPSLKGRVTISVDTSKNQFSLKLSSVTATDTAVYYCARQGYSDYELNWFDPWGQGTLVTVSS VL: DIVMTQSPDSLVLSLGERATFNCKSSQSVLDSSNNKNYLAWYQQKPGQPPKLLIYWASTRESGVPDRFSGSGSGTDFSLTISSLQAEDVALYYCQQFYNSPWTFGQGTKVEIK
Reply: 3.06e-05
